Biological target: T1, recombinant human LAG-3-his protein (Novoprotein) (human, UniProt P18627 23-450)
T1 construct: Bought; also called huLAG-3; not shown: His tag
T1 sequence (looked up): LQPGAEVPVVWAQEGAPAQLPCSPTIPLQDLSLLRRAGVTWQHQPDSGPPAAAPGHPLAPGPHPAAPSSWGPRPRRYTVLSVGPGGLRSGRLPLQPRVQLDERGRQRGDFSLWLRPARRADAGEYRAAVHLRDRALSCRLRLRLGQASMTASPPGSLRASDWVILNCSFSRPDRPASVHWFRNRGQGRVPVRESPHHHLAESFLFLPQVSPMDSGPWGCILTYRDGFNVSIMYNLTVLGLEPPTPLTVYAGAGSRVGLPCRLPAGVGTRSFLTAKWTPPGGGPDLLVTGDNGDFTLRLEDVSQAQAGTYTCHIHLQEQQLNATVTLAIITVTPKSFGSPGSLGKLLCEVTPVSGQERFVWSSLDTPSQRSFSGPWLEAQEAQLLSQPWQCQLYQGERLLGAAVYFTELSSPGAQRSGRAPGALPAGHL
Assay: BLI Octet, Ab on AHC sensor, huLAG-3-his; test group 1
Measurement Label: off-rate ratio to that of mAb747c (%)
A number alone suffices; assume %.

HumAb747V-66 (antibody, human IgG1, V domains shown, engineered HumAb747-60 variant; human IgG1/kappa constant domains) VH: EVQLVQSGAEVKKPGATVKLSCTASGFNIKDDYMHWVKQRPEQGLDWIGWIVPENGNTVYASKFQGKATITADTSTNTAYLELSSLRSEDTAVYYCTVYGDYWGQGTTVTVSS VL: DIQMTQSPSSLSASVGDRVTITCRASQEISGYLSWLQQKPGGAIKRLIYAASTLDLGVPSRFSGSRSGSDYTLTISSLQPEDFADYYCLQYASYPLTFGQGTKLELK	95
HumAb747V-62 (antibody, human IgG1, V domains shown, engineered HumAb747-60 variant; human IgG1/kappa constant domains) VH: EVQLVQSGAEVKKPGATVKLSCTASGFNIKDDYMHWVKQRPEQGLDWIGWIVPRNGNTMYASKFQGKATITADTSTNTAYLELSSLRSEDTAVYYCTVYGDYWGQGTTVTVSS VL: DIQMTQSPSSLSASVGDRVTITCRASQEISGYLSWLQQKPGGAIKRLIYAASTLDLGVPSRFSGSRSGSDYTLTISSLQPEDFADYYCLQYASYPLTFGQGTKLELK	78

Q: Need off-rate ratio to that of mAb747c, item HumAb747V-64 (antibody, human IgG1, V domains shown, engineered HumAb747-60 variant; human IgG1/kappa constant domains) VH: EVQLVQSGAEVKKPGATVKLSCTASGFNIKDDYMHWVKQRPEQGLDWIGWIVPRNGNTMYASKFQGKATITADTSTNTAYLELSSLRSEDTAVYYCTVYGDYWGQGTTVTVSS VL: DIQMTQSPSSLSASVGDRVTITCRASQEISGYLSWLQQKPGGAIKRLIYAASALDLGVPSRFSGSRSGSDYTLTISSLQPEDFADYYCLQYASYPLTFGQGTKLELK
A: 73
